Procedure Summary: Light stability in ethyl acetate (HPLC % area)
Type: physicochemical
Test Conditions: in ethyl acetate, clear glass vial, initial time point
The compounds listed here are annotated with their Initial % (content as % area of the total peak area).
Reply with the number and its unit after it.

Prompt: Request the reported Initial % (content as % area of the total peak area) associated with `CC(C)=CCC/C(C)=C/CC/C(C)=C/CC/C(C)=C/CC/C(C)=C/CC/C(C)=C/CC/C(C)=C/Cc1c(C)c(OC(=O)c2ccccc2)c2ccccc2c1OC(=O)c1ccccc1`
Completion: 98.5%

###

Below, each entry is listed with its recorded Purity after 1 d (%).
Procedure Summary: Light stability in MCT oil (HPLC % area)
Type: physicochemical
Test Conditions: light exposure 1 d
Give just the number in %; leave the unit off.

Please review the entries below; each comes with its answer.
Molecule | Result Units | Purity after 1 d (%)
CC(C)=CCC/C(C)=C/CC/C(C)=C/CC/C(C)=C/CC/C(C)=C/CC/C(C)=C/CC/C(C)=C/Cc1c(C)c(OC(=O)c2ccc(C(F)(F)F)cc2)c2ccccc2c1OC(=O)c1ccc(C(F)(F)F)cc1 [Example 13] | % | 84.8
CCOP(=O)(OCC)Oc1c(C)c(C/C=C(\C)CC/C=C(\C)CC/C=C(\C)CC/C=C(\C)CC/C=C(\C)CC/C=C(\C)CCC=C(C)C)c(OC(=O)CC)c2ccccc12 [Example 9] | % | 89.0
CCOP(=O)(OC/C=C(\C)CC/C=C(\C)CC/C=C(\C)CC/C=C(\C)CC/C=C(\C)CC/C=C(\C)CCC=C(C)C)Oc1c(CC)c(C)c(OC(=O)c2ccccc2)c2ccccc12 (centres unmarked) [Example 4] | % | 84.4
CC(C)=CCC/C(C)=C/CC/C(C)=C/CC/C(C)=C/CC/C(C)=C/CC/C(C)=C/CC/C(C)=C/CC1=C(C)C(=O)c2ccccc2C1=O [MK-7, reference compound] | % | 73.5

# next molecule below
Prompt: Value lookup for Purity after 1 d (%); key = CC(C)=CCC/C(C)=C/CC/C(C)=C/CC/C(C)=C/CC/C(C)=C/CC/C(C)=C/CC/C(C)=C/Cc1c(C)c(OC(=O)c2ccccc2)c2ccccc2c1O [Example 2B]
Completion: 84.6

###

The compounds listed here are annotated with their Purity after 3 d (%).
Procedure Summary: Light stability in MCT oil (HPLC % area)
Format: physicochemical
Test Conditions: light exposure 3 d
Could you write the number and then its unit?

Worked examples follow.
Cpd Smiles | Purity after 3 d (%)
CC(C)=CCC/C(C)=C/CC/C(C)=C/CC/C(C)=C/CC/C(C)=C/CC/C(C)=C/CC/C(C)=C/Cc1c(C)c(OC(=O)c2ccccc2)c2ccccc2c1O | 63.8%
CCC(=O)Oc1c(C/C=C(\C)CC/C=C(\C)CC/C=C(\C)CC/C=C(\C)CC/C=C(\C)CC/C=C(\C)CCC=C(C)C)c(C)c(OC(=O)CCNC(=O)OC(C)(C)C)c2ccccc12 | 84.4%
CCC(=O)Oc1c(C/C=C(\C)CC/C=C(\C)CC/C=C(\C)CC/C=C(\C)CC/C=C(\C)CC/C=C(\C)CCC=C(C)C)c(C)c(OC(=O)[C@@H](NC(=O)OC(C)(C)C)C(C)C)c2ccccc12 | 89.0%
CC(C)=CCC/C(C)=C/CC/C(C)=C/CC/C(C)=C/CC/C(C)=C/CC/C(C)=C/CC/C(C)=C/Cc1c(C)c(OC(=O)c2ccccc2)c2ccccc2c1OC(=O)c1ccccc1 | 92.9%

Shifting focus to the compound that follows.
Prompt: What value of Purity after 3 d (%) has been recorded for this entry: `CCOP(=O)(OCC)Oc1c(C)c(C/C=C(\C)CC/C=C(\C)CC/C=C(\C)CC/C=C(\C)CC/C=C(\C)CC/C=C(\C)CCC=C(C)C)c(OC(=O)CC)c2ccccc12`
Completion: 84.2%
